# credit: PubChem BioAssay (NCI)

# Test system: HCC-2998 colon
# ASSAY METHOD TEXT: NCI-60 one-dose screen, 48 h (100 = growth as untreated, 0 = no growth, -100 = all killed)
# CONDITION SET: 10 µM unless noted
# Protocol: Growth inhibition of the HCC-2998 human tumor cell line is measured as a screen for anti-cancer activity. Cells are grown in 96 well plates and exposed to the test compound for 48 hours. Compounds are tested at a single concentration, which is 10^-5 M for most compounds. The reported endpoint is percent growth (GI% or GIPRCNT), where numbers from 0 - 100% represent growth inhibition, and numbers from -100% - 0 represent cell death. For example, a value of 40 represents 60% growth inhibition. […]
The panel holds about 83,000 compounds, 20% with a hit somewhere; the sample as a whole holds those more often.
Overview of recorded growth for various compounds
PARAMETER: growth (%)

{"COMPOUND": "O=C1Nc2ccccc2C2c3cccn3-c3ccccc3N12 (stereo not given)", "SUBJECT OF TEST": "HCC-2998 colon", "PARAMETER": "growth", "UNIT SYMBOL": "%", "MEAS VALUE": 77.2}
{"COMPOUND": "CCN(CC)c1ccc(N2C(=O)/C(=C/c3cccs3)SC2=S)cc1", "SUBJECT OF TEST": "HCC-2998 colon", "PARAMETER": "growth", "UNIT SYMBOL": "%", "MEAS VALUE": 110}
{"COMPOUND": "COc1cccc(OC)c1Oc1c(-c2nc3ccccc3s2)c(C)nn1-c1ccccc1", "SUBJECT OF TEST": "HCC-2998 colon", "PARAMETER": "growth", "UNIT SYMBOL": "%", "MEAS VALUE": 81.9}
{"COMPOUND": "CN1CCN(CCCOC(=O)c2c3c(n4ccccc24)C(=O)c2ncccc2C3=O)CC1", "SUBJECT OF TEST": "HCC-2998 colon", "PARAMETER": "growth", "UNIT SYMBOL": "%", "MEAS VALUE": 29.9}
{"COMPOUND": "CC1(C)OC(=O)C(=Cc2cccc(Br)c2)C(=O)O1", "SUBJECT OF TEST": "HCC-2998 colon", "PARAMETER": "growth", "UNIT SYMBOL": "%", "MEAS VALUE": 113}
{"COMPOUND": "COc1cc(C2=NN(C(C)=O)C(c3ccc(N(C)C)cc3)C2)cc(OC)c1OC (stereo not given)", "SUBJECT OF TEST": "HCC-2998 colon", "PARAMETER": "growth", "UNIT SYMBOL": "%", "MEAS VALUE": 102}
{"COMPOUND": "CCCCCCCCn1ccc2cc(NC(=O)Cn3cc(CN4CCC(C)CC4)nn3)ccc21", "SUBJECT OF TEST": "HCC-2998 colon", "PARAMETER": "growth", "UNIT SYMBOL": "%", "MEAS VALUE": -78.8}
{"COMPOUND": "CC1(C)CCC(S(=O)(=O)c2ccc3c(c2)/C(=N\\O)c2cc(S(=O)(=O)N4CCN(c5ccc(F)cc5O)CC4)ccc2-3)CC1", "SUBJECT OF TEST": "HCC-2998 colon", "PARAMETER": "growth", "UNIT SYMBOL": "%", "MEAS VALUE": -92.1}
{"COMPOUND": "CCCCn1sc(=O)n(Cc2ccc(CNC(=O)OCc3ccc4c(Cl)cc(Cl)c(O)c4n3)cc2)c1=O", "SUBJECT OF TEST": "HCC-2998 colon", "PARAMETER": "growth", "UNIT SYMBOL": "%", "MEAS VALUE": 98.7}
{"COMPOUND": "COc1ccc(-c2ccc(-c3ccc(C(=N)N)cn3)s2)cc1", "SUBJECT OF TEST": "HCC-2998 colon", "PARAMETER": "growth", "UNIT SYMBOL": "%", "MEAS VALUE": 81.3}
{"COMPOUND": "COc1ccc(C/C(C)=C(\\c2ccc(O)cc2)c2ccc(OCCN3CCCC3)cc2)cc1", "SUBJECT OF TEST": "HCC-2998 colon", "PARAMETER": "growth", "UNIT SYMBOL": "%", "MEAS VALUE": 104}
{"COMPOUND": "COc1cc2ncnc(Nc3ccc(F)c(Cl)c3)c2cc1OCC(=O)N1CCN(c2ccc(F)cc2)CC1", "SUBJECT OF TEST": "HCC-2998 colon", "PARAMETER": "growth", "UNIT SYMBOL": "%", "MEAS VALUE": 98.1}
{"COMPOUND": "Cc1ccc(-c2csc(NC(=O)N3CCN(c4cc5c(cc4F)c(=O)c(C(=O)O)cn5C4CC4)CC3)n2)cc1", "SUBJECT OF TEST": "HCC-2998 colon", "PARAMETER": "growth", "UNIT SYMBOL": "%", "MEAS VALUE": 32.9}
{"COMPOUND": "COc1cc2oc(-c3cccc(NC(=O)c4ccc5c(c4)OCO5)c3)cc(=O)c2c(OC)c1OC", "SUBJECT OF TEST": "HCC-2998 colon", "PARAMETER": "growth", "UNIT SYMBOL": "%", "MEAS VALUE": 53.1}
{"COMPOUND": "Cc1cc2nc(-c3c(-c4ccc(F)cc4)nc4sccn34)[nH]c2cc1C", "SUBJECT OF TEST": "HCC-2998 colon", "PARAMETER": "growth", "UNIT SYMBOL": "%", "MEAS VALUE": 106}
{"COMPOUND": "Cc1cccc(-n2c(C)nc3ccc(N4CCCNC4=O)cc3c2=O)c1", "SUBJECT OF TEST": "HCC-2998 colon", "PARAMETER": "growth", "UNIT SYMBOL": "%", "MEAS VALUE": 109}
{"COMPOUND": "COc1cc(-c2nc3ccc(C)cc3[nH]2)ccc1OCC(=O)N=Nc1c(O)[nH]c2ccc(Cl)cc12", "SUBJECT OF TEST": "HCC-2998 colon", "PARAMETER": "growth", "UNIT SYMBOL": "%", "MEAS VALUE": -32.5}
{"COMPOUND": "O=C1C(Cl)=C(NCCN2CCOCC2)C(=O)c2ncccc21", "SUBJECT OF TEST": "HCC-2998 colon", "PARAMETER": "growth", "UNIT SYMBOL": "%", "MEAS VALUE": 31.8}
{"COMPOUND": "Cc1ccc(/C=C2\\CN(C(=O)C(Cl)Cl)C/C(=C\\c3ccc(C)cc3)C2=O)cc1", "SUBJECT OF TEST": "HCC-2998 colon", "PARAMETER": "growth", "UNIT SYMBOL": "%", "MEAS VALUE": -89.6}
{"COMPOUND": "CC1=CCC[C@@H]2C1(C)CC[C@H](C)[C@@]2(C)CC1=CC(=O)C(SC(C)(C)C)=CC1=O (stereo not given in full)", "SUBJECT OF TEST": "HCC-2998 colon", "PARAMETER": "growth", "UNIT SYMBOL": "%", "MEAS VALUE": 96.8}
{"COMPOUND": "COc1cc(-c2cc(-c3ccc(Nc4ncnc5cc(Cl)ccc45)cc3)nc(N3CCN(C)CC3)n2)cc(OC)c1OC", "SUBJECT OF TEST": "HCC-2998 colon", "PARAMETER": "growth", "UNIT SYMBOL": "%", "MEAS VALUE": 110}
{"COMPOUND": "O=C(NCc1ccc2c(c1)OCO2)NCC1CCCC(CNC(=O)NCc2ccc3c(c2)OCO3)C1 (stereo not given)", "SUBJECT OF TEST": "HCC-2998 colon", "PARAMETER": "growth", "UNIT SYMBOL": "%", "MEAS VALUE": 102}
{"COMPOUND": "CCN1CCN(CC(=O)Nc2nc3ccc(NCc4ccc(Br)cc4)cc3s2)CC1", "SUBJECT OF TEST": "HCC-2998 colon", "PARAMETER": "growth", "UNIT SYMBOL": "%", "MEAS VALUE": 62.6}
{"COMPOUND": "CCCCCCCCCCCCCCCCCCOc1ccccc1CC(=O)NCC[N+]1(C)CCOCC1", "SUBJECT OF TEST": "HCC-2998 colon", "PARAMETER": "growth", "UNIT SYMBOL": "%", "MEAS VALUE": 31.1}
{"COMPOUND": "C[N+](C)(C/C=C/c1ccccc1)Cc1ccccc1", "SUBJECT OF TEST": "HCC-2998 colon", "PARAMETER": "growth", "UNIT SYMBOL": "%", "MEAS VALUE": 95.8}
{"COMPOUND": "COc1ccc2nc3ccccc3c(NCc3ccc(F)cc3)c2c1", "SUBJECT OF TEST": "HCC-2998 colon", "PARAMETER": "growth", "UNIT SYMBOL": "%", "MEAS VALUE": -77.6}
{"COMPOUND": "C=CC1(C)C(O[Si](C)(C)C(C)(C)C)CC2C3OC(=O)NC31c1cccc3c1[C@H](C(=O)N3C)C2(C)C (stereo not given in full)", "SUBJECT OF TEST": "HCC-2998 colon", "PARAMETER": "growth", "UNIT SYMBOL": "%", "MEAS VALUE": 69.1}
{"COMPOUND": "Cc1ccccc1CNc1c2ccccc2nc2ccccc12", "SUBJECT OF TEST": "HCC-2998 colon", "PARAMETER": "growth", "UNIT SYMBOL": "%", "MEAS VALUE": 16.2}
{"COMPOUND": "CC(=O)N(Cc1ccccc1)c1nc2ccc(O)c(CN(C)C)c2s1", "SUBJECT OF TEST": "HCC-2998 colon", "PARAMETER": "growth", "UNIT SYMBOL": "%", "MEAS VALUE": 105}
{"COMPOUND": "CCOC(=O)c1c(NC(=O)c2ccc(C(C)(C)C)cc2)sc2cc(O)ccc12", "SUBJECT OF TEST": "HCC-2998 colon", "PARAMETER": "growth", "UNIT SYMBOL": "%", "MEAS VALUE": 104}
{"COMPOUND": "CC1COCC(C)N1C1=C(Cl)C(=O)c2ccccc2C1=O (stereo not given)", "SUBJECT OF TEST": "HCC-2998 colon", "PARAMETER": "growth", "UNIT SYMBOL": "%", "MEAS VALUE": 101}
{"COMPOUND": "COc1cc(Nc2ncccc2NC(=O)c2cn(Cc3cccc(Oc4ccccc4)c3)nn2)cc(OC)c1", "SUBJECT OF TEST": "HCC-2998 colon", "PARAMETER": "growth", "UNIT SYMBOL": "%", "MEAS VALUE": 71.6}
{"COMPOUND": "COc1ccc(C2=Nc3c/c(=C\\c4c(O)[nH]c5cc(Cl)ccc45)ccc3=N2)cc1", "SUBJECT OF TEST": "HCC-2998 colon", "PARAMETER": "growth", "UNIT SYMBOL": "%", "MEAS VALUE": 73.6}
{"COMPOUND": "CCn1c2ccc(O)cc2c2c(C)c3c[n+](C(C)C)ccc3c(C)c21", "SUBJECT OF TEST": "HCC-2998 colon", "PARAMETER": "growth", "UNIT SYMBOL": "%", "MEAS VALUE": 42.6}
{"COMPOUND": "N#C/C(=C\\c1ccc(-c2ccc(Cl)cc2)o1)c1ccc(Cl)cc1", "SUBJECT OF TEST": "HCC-2998 colon", "PARAMETER": "growth", "UNIT SYMBOL": "%", "MEAS VALUE": 96.4}
{"COMPOUND": "C#CCOc1ccc2ncnc(Nc3cccc(NC(=O)CCl)c3)c2c1", "SUBJECT OF TEST": "HCC-2998 colon", "PARAMETER": "growth", "UNIT SYMBOL": "%", "MEAS VALUE": 99.4}
{"COMPOUND": "c1ccc(CCc2ccccc2-c2cc(-c3ccccc3)on2)cc1", "SUBJECT OF TEST": "HCC-2998 colon", "PARAMETER": "growth", "UNIT SYMBOL": "%", "MEAS VALUE": 90.4}
{"COMPOUND": "CNCc1cccc2c1OCCOCCN(C)C(=O)CN(C)S(=O)(=O)c1ccc(cc1)-c1cnc(N)c(n1)C(=O)N2", "SUBJECT OF TEST": "HCC-2998 colon", "PARAMETER": "growth", "UNIT SYMBOL": "%", "MEAS VALUE": 28}
{"COMPOUND": "Cc1ccc(/C=C/C(=O)c2ccc(NC(=O)CSc3nc4c([nH]3)c(=O)n(C)c(=O)n4C)cc2)c(C)c1", "SUBJECT OF TEST": "HCC-2998 colon", "PARAMETER": "growth", "UNIT SYMBOL": "%", "MEAS VALUE": 45.1}
{"COMPOUND": "CC(=O)c1c(Nc2ccc(F)c(F)c2F)[nH]c2c(F)cc(F)cc2c1=O", "SUBJECT OF TEST": "HCC-2998 colon", "PARAMETER": "growth", "UNIT SYMBOL": "%", "MEAS VALUE": 7.96}
